- assayed system: T1, wild-type tau (441 amino acids; tau441; NP_005901.2) (human, UniProt P10636 1-758)
- T1 construct: Unphosphorylated recombinant tau441 used in the wild-type tau ELISA; also called wt tau441; wtTau
- T1 sequence (P10636 other isoform, or with tags, fused parts or gaps limits assumed): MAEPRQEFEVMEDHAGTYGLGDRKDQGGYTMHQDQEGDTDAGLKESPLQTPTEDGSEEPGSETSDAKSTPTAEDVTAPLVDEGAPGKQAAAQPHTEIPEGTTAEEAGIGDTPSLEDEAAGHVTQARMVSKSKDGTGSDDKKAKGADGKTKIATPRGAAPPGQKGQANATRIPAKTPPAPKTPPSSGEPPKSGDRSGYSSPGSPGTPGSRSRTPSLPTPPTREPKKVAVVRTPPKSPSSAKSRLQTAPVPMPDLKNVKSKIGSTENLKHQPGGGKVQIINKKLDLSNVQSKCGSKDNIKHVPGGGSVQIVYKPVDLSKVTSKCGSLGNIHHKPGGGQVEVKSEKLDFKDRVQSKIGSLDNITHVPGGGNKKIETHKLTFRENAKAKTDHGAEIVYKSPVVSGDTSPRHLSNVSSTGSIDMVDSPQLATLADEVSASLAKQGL
- assay text: wild-type tau ELISA, 293 cell supernatant
quantity name: binding result

Completed entries (count: 10):
[[record]]
binder = "IPN002 scFv-HA expressed from TAU_ITR141 (CAG, HL, (G4S)5) (scFv, also called CAG-IPN0010-HL-G4S5) scFv: EVHLVESGGALVKPGGSLKLSCAASGFSFSKYGMSWVRQTPDKRLEWVATISSSGSRTYYPDSVKGQFTISRDNAKNTLYLQMSSLKSEDTAMYYCSISWDGAMDYWGQGTSVTVSSGGGGSGGGGSGGGGSGGGGSGGGGSDVLMTQTPLSLPVSLGDQASISCKSSQSIVHSNGNTYLEWYLQKPGQSPKLLVYKVSNRFSGVPDRFSGSGSGTDFTLKISRVEAEDLGTYYCFQGSLVPWAFGGGTKLEIK"
value_observed = "binds"

[[record]]
binder = "IPN002 scFv-HA expressed from TAU_ITR152 (CAG, LH, (G4S)3) (scFv, also called CAG-IPN005-LH-G4S3; L(G4S)3H) scFv: DVLMTQTPLSLPVSLGDQASISCKSSQSIVHSNGNTYLEWYLQKPGQSPKLLVYKVSNRFSGVPDRFSGSGSGTDFTLKISRVEAEDLGTYYCFQGSLVPWAFGGGTKLEIKGGGGSGGGGSGGGGSEVHLVESGGALVKPGGSLKLSCAASGFSFSKYGMSWVRQTPDKRLEWVATISSSGSRTYYPDSVKGQFTISRDNAKNTLYLQMSSLKSEDTAMYYCSISWDGAMDYWGQGTSVTVSS"
value_observed = "binds"

[[record]]
binder = "IPN002 scFv-HA expressed from TAU_ITR153 (CAG, LH, (G4S)4) (scFv, also called CAG-IPN006-LH-G4S4) scFv: DVLMTQTPLSLPVSLGDQASISCKSSQSIVHSNGNTYLEWYLQKPGQSPKLLVYKVSNRFSGVPDRFSGSGSGTDFTLKISRVEAEDLGTYYCFQGSLVPWAFGGGTKLEIKGGGGSGGGGSGGGGSGGGGSEVHLVESGGALVKPGGSLKLSCAASGFSFSKYGMSWVRQTPDKRLEWVATISSSGSRTYYPDSVKGQFTISRDNAKNTLYLQMSSLKSEDTAMYYCSISWDGAMDYWGQGTSVTVSS"
value_observed = "binds"

[[record]]
binder = "IPN002 scFv-HA expressed from TAU_ITR140 (CAG, HL, (G4S)4) (scFv, also called CAG-IPN008-HL-G4S4) scFv: EVHLVESGGALVKPGGSLKLSCAASGFSFSKYGMSWVRQTPDKRLEWVATISSSGSRTYYPDSVKGQFTISRDNAKNTLYLQMSSLKSEDTAMYYCSISWDGAMDYWGQGTSVTVSSGGGGSGGGGSGGGGSGGGGSDVLMTQTPLSLPVSLGDQASISCKSSQSIVHSNGNTYLEWYLQKPGQSPKLLVYKVSNRFSGVPDRFSGSGSGTDFTLKISRVEAEDLGTYYCFQGSLVPWAFGGGTKLEIK"
value_observed = "binds"

[[record]]
binder = "IPN002 F(ab')2_hIgG3_3hinge expressed from TAU_ITR122 (CBA, hGbin, HF.T2AL) (F(ab')2) VH: EVHLVESGGALVKPGGSLKLSCAASGFSFSKYGMSWVRQTPDKRLEWVATISSSGSRTYYPDSVKGQFTISRDNAKNTLYLQMSSLKSEDTAMYYCSISWDGAMDYWGQGTSVTVSS VL: DVLMTQTPLSLPVSLGDQASISCKSSQSIVHSNGNTYLEWYLQKPGQSPKLLVYKVSNRFSGVPDRFSGSGSGTDFTLKISRVEAEDLGTYYCFQGSLVPWAFGGGTKLEIK"
value_observed = "binds"

[[record]]
binder = "IPN002 scFv-HA expressed from TAU_ITR151 (CAG, LH, (G4S)2) (scFv, also called CAG-IPN004-LH-G4S2) scFv: DVLMTQTPLSLPVSLGDQASISCKSSQSIVHSNGNTYLEWYLQKPGQSPKLLVYKVSNRFSGVPDRFSGSGSGTDFTLKISRVEAEDLGTYYCFQGSLVPWAFGGGTKLEIKGGGGSGGGGSEVHLVESGGALVKPGGSLKLSCAASGFSFSKYGMSWVRQTPDKRLEWVATISSSGSRTYYPDSVKGQFTISRDNAKNTLYLQMSSLKSEDTAMYYCSISWDGAMDYWGQGTSVTVSS"
value_observed = "binds"

[[record]]
binder = "IPN002 scFv-HA expressed from TAU_ITR154 (CAG, LH, (G4S)5) (scFv, also called CAG-IPN007-LH-G4S5) scFv: DVLMTQTPLSLPVSLGDQASISCKSSQSIVHSNGNTYLEWYLQKPGQSPKLLVYKVSNRFSGVPDRFSGSGSGTDFTLKISRVEAEDLGTYYCFQGSLVPWAFGGGTKLEIKGGGGSGGGGSGGGGSGGGGSGGGGSEVHLVESGGALVKPGGSLKLSCAASGFSFSKYGMSWVRQTPDKRLEWVATISSSGSRTYYPDSVKGQFTISRDNAKNTLYLQMSSLKSEDTAMYYCSISWDGAMDYWGQGTSVTVSS"
value_observed = "binds"

[[record]]
binder = "IPN002 scFv-HA expressed from TAU_ITR143 (CAG, HL, (G4S)8) (scFv, also called CAG-IPN0012-HL-G4S8) scFv: EVHLVESGGALVKPGGSLKLSCAASGFSFSKYGMSWVRQTPDKRLEWVATISSSGSRTYYPDSVKGQFTISRDNAKNTLYLQMSSLKSEDTAMYYCSISWDGAMDYWGQGTSVTVSSGGGGSGGGGSGGGGSGGGGSGGGGSGGGGSGGGGSGGGGSDVLMTQTPLSLPVSLGDQASISCKSSQSIVHSNGNTYLEWYLQKPGQSPKLLVYKVSNRFSGVPDRFSGSGSGTDFTLKISRVEAEDLGTYYCFQGSLVPWAFGGGTKLEIK"
value_observed = "binds"

[[record]]
binder = "IPN002 scFv-HA expressed from TAU_ITR142 (CAG, HL, (G4S)6) (scFv, also called CAG-IPN0011-HL-G4S6) scFv: EVHLVESGGALVKPGGSLKLSCAASGFSFSKYGMSWVRQTPDKRLEWVATISSSGSRTYYPDSVKGQFTISRDNAKNTLYLQMSSLKSEDTAMYYCSISWDGAMDYWGQGTSVTVSSGGGGSGGGGSGGGGSGGGGSGGGGSGGGGSDVLMTQTPLSLPVSLGDQASISCKSSQSIVHSNGNTYLEWYLQKPGQSPKLLVYKVSNRFSGVPDRFSGSGSGTDFTLKISRVEAEDLGTYYCFQGSLVPWAFGGGTKLEIK"
value_observed = "binds"

[[record]]
binder = "IPN002 scFv-HA expressed from TAU_ITR150 (CAG, LH, G4S) (scFv, also called CAG-IPN004-LH-G4S; L(G4S)H) scFv: DVLMTQTPLSLPVSLGDQASISCKSSQSIVHSNGNTYLEWYLQKPGQSPKLLVYKVSNRFSGVPDRFSGSGSGTDFTLKISRVEAEDLGTYYCFQGSLVPWAFGGGTKLEIKGGGGSEVHLVESGGALVKPGGSLKLSCAASGFSFSKYGMSWVRQTPDKRLEWVATISSSGSRTYYPDSVKGQFTISRDNAKNTLYLQMSSLKSEDTAMYYCSISWDGAMDYWGQGTSVTVSS"
value_observed = "binds"


Alright, here's another binder for you.
What does the record list as binding result for IPN002 scFv-HA expressed from TAU_ITR155 (CAG, LH, (G4S)6) (scFv, also called CAG-IPN0014-LH-G4S6) scFv: DVLMTQTPLSLPVSLGDQASISCKSSQSIVHSNGNTYLEWYLQKPGQSPKLLVYKVSNRFSGVPDRFSGSGSGTDFTLKISRVEAEDLGTYYCFQGSLVPWAFGGGTKLEIKGGGGSGGGGSGGGGSGGGGSGGGGSGGGGSEVHLVESGGALVKPGGSLKLSCAASGFSFSKYGMSWVRQTPDKRLEWVATISSSGSRTYYPDSVKGQFTISRDNAKNTLYLQMSSLKSEDTAMYYCSISWDGAMDYWGQGTSVTVSS ?
binds
